Data provenance is patent US11945822B2.

molecular target: CDK7/Cyclin H/MNAT1 (Homo sapiens, UniProt P50613); construct: purchased Invitrogen PR6749B; assay: Enzymatic assay for CDK7 (FRET based LANCE Ultra kinase assay); type: biochemical; conditions: CDK7 over CDK5
Sequence (P50613 whole entry): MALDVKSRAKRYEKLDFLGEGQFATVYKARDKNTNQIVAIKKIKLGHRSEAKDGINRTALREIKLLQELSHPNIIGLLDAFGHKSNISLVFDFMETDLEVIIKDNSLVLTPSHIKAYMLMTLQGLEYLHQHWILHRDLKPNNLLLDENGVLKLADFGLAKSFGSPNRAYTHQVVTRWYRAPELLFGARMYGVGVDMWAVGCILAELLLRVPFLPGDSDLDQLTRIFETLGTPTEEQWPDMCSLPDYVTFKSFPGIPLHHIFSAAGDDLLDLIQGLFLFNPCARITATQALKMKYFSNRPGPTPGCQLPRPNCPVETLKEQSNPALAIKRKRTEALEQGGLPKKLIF
Sequence (P51946 whole entry partner): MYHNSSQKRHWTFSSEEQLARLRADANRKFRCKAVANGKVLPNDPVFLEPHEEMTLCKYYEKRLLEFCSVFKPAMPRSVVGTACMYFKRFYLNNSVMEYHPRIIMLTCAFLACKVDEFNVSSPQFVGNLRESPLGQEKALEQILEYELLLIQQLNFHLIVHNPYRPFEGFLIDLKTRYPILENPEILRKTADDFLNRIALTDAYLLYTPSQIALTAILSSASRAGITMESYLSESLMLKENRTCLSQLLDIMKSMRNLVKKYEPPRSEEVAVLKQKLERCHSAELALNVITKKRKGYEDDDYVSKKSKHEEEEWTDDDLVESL
Sequence (P51948 whole entry partner): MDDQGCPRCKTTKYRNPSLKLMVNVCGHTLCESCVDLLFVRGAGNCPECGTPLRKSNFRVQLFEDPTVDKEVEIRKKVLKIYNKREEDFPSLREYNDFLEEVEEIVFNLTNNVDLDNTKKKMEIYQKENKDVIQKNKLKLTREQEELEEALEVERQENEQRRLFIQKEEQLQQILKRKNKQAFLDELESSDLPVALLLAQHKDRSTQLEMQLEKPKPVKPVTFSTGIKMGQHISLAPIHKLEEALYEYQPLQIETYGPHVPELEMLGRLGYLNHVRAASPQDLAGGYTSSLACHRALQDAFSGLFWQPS
measured.metric: CDK5/CDK7: Selectivity of CDK7 inhibition over CDK5 inhibition

# compound, measurement
measured = [
    ("CC(C)c1cnn2c(NCc3ccccc3-c3ccc4[nH]ncc4c3)nc(N3CCC(N)CC3)nc12 [Compound 137]", "C (C=less than 20 fold)"),
    ("CC(C)c1cnn2c(NCc3ccccc3-n3cccn3)nc(NC3CCNCC3)nc12 [Compound 40]", "C (C=less than 20 fold)"),
]

====

molecular target: CDK2/Cyclin A (Homo sapiens, UniProt P24941); construct: purchased Invitrogen PV6290; assay: Enzymatic assay for CDK2 (FRET based LANCE Ultra kinase assay); format: biochemical; details: read-out: CDK2 enzymatic activity (IC50 range)

# compound, IC50
measured = [
    ("CC(C)c1cnn2c(NCc3ccccc3-n3ccc(C(C)(C)O)n3)nc(OCC3CCNCC3)nc12 [Compound 227]", "> 1000 nM"),
    ("CC(C)c1cnn2c(NCc3ccccc3-n3ccc(C(C)(C)O)n3)nc(N3CCC(CN)CC3)nc12 [Compound 221]", "> 1000 nM"),
    ("CC(C)c1cnn2c(NCc3ccccc3-n3cccn3)nc(N3CCNCC3)nc12 [Compound 2]", "100 to 1000 nM"),
    ("CC(C)c1cnn2c(NCc3ccccc3-c3nccc4cc(NC(=O)CCCN(C)C)ccc34)nc(N3CCC(N)CC3)nc12 [Compound 92]", "> 1000 nM"),
]

====

target: CDK7/Cyclin H/MNAT1 (Homo sapiens); construct: purchased Invitrogen PR6749B; assay: Enzymatic assay for CDK7 (FRET based LANCE Ultra kinase assay); assay type: biochemical
measured.metric: IC50

# chemical.structure, measurement
rows = [
    ("CC(C)c1cnn2c(NCc3ccccc3-n3ccc(-c4ccccc4)n3)nc(N3CCC(N)CC3)nc12", "< 100 nM"),
]

====

biological target: CDK20/CycH (Homo sapiens); construct: either as full-length or enzymatically active fragments; experiment: In vitro IC50 profile for CDKs family kinase (33PanQinase radiometric assay); conditions: CDK7 selectivity profile in CDKs family
Sequence (Q8IZL9 whole entry, the tested form may be a part): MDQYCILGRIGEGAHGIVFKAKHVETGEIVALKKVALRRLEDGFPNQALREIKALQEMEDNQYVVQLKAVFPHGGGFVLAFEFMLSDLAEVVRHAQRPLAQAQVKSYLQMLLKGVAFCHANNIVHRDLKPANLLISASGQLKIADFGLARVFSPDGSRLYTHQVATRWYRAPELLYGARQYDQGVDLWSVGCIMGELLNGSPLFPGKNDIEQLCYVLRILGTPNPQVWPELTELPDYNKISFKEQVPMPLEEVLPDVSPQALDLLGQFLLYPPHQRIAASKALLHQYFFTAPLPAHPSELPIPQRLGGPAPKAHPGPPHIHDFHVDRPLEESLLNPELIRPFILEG
Sequence (P51946 whole entry partner, the tested form may be a part): as the sequence (P51946 whole entry partner) above
pIC50: −log10 of the molar value.

# chemical.structure, pIC50
data = [
    ("CC(C)c1cnn2c(NCc3c(Cl)cccc3-n3ccc(C(C)(C)O)n3)nc(N3CCC(N)CC3)nc12", "< 5.00"),
]

====

Target: CDK6/CycD3 (Homo sapiens)
Sequence (Q00534 whole entry): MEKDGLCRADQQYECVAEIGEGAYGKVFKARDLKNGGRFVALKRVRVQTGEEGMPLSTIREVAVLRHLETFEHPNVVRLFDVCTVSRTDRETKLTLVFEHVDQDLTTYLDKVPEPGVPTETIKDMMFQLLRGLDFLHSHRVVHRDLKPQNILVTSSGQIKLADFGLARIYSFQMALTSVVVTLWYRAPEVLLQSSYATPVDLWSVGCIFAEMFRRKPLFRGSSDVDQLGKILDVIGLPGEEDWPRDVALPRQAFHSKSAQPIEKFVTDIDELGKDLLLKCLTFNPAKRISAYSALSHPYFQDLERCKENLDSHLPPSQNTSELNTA
Sequence (P30281 whole entry partner): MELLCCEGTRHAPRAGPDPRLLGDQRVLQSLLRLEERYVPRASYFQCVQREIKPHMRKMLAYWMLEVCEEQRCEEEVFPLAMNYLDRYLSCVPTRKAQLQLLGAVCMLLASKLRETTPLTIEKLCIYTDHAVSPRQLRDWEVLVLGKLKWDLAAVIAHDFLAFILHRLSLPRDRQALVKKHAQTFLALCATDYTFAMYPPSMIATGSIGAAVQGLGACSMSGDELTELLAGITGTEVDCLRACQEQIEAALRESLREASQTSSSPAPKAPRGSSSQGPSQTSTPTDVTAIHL
Experiment: In vitro IC50 profile for CDKs family kinase (33PanQinase radiometric assay)
Conditions: CDK7 selectivity profile in CDKs family
Procedure: In Vitro IC50 Profile for CDK7 Inhibitor Among 28 CDKs Family Kinases. The IC50 profile of compounds were determined using 28 CDKs family protein kinases through ProQinase GmbH (Freiburg, Germany). […] Kinases from external vendors, Carna Biosciences Inc.; Invitrogen Corp.; and Millipore Corp., were expressed, purified and quality-controlled by virtue of the vendors readings. […] Incorporation of ^33Pi was determined with a microplate scintillation counter (Microbeta, Wallac). […]
pIC50: −log10 of the molar value.

# chemical.structure, pIC50
data = [
    ("CC(C)c1cnn2c(NCc3c(Cl)cccc3-n3ccc(C(C)(C)O)n3)nc(N3CCC(N)CC3)nc12", "< 5.00"),
]

====

Reported values of pIC50 for individual entries
biological target: CDK1/Cyclin B (Homo sapiens, UniProt P06493); construct: purchased Invitrogen PR4768C; assay: Enzymatic assay for CDK1 (FRET based LANCE Ultra kinase assay); format: biochemical; conditions: read-out: CDK1 enzymatic activity (IC50 range)
Sequence (P06493 whole entry): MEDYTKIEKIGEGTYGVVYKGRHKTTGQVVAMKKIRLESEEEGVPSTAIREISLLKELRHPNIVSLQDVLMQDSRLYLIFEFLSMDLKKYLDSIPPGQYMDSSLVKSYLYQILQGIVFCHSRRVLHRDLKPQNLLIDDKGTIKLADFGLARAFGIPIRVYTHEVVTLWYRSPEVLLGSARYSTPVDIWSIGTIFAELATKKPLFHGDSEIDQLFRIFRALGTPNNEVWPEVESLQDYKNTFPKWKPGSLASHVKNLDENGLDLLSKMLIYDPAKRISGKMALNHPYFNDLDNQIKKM
Sequence (P14635 whole entry partner): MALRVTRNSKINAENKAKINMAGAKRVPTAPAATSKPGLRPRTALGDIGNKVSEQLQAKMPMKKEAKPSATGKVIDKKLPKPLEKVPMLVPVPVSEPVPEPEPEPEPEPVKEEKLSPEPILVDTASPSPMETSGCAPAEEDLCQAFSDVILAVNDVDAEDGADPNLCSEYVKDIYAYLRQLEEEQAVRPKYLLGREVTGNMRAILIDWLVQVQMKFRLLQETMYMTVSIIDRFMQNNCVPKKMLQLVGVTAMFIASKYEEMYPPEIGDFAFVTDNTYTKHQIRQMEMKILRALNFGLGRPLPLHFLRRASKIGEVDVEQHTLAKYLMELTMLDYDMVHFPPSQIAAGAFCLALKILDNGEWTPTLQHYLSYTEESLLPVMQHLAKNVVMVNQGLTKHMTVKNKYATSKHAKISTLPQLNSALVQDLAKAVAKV
pIC50: −log10 of the molar value.

# compound, pIC50
rows = [
    ("CC(C)c1cnn2c(NCc3ccccc3-n3cc4cc(NS(C)(=O)=O)ccc4n3)nc(N3CCC(N)CC3)nc12", "6.00 to 7.00"),
    ("CNC(=O)c1ccc2nn(-c3ccccc3CNc3nc(N4CCC(N)CC4)nc4c(C(C)C)cnn34)cc2c1", "6.00 to 7.00"),
    ("CC(C)c1cnn2c(NCc3ccccc3-c3cc4ccccc4[nH]3)nc(N3CCC(N)CC3)nc12", "6.00 to 7.00"),
    ("CC(=O)NC1CCN(c2nc(NCc3c(Cl)cccc3-n3ccc(C(C)(C)O)n3)n3ncc(C(C)C)c3n2)CC1", "< 6.00"),
    ("CC(C)c1cnn2c(NCc3ccccc3-n3cccn3)nc([C@H]3CC[C@H](N)CC3)nc12", "6.00 to 7.00"),
    ("CC(C)c1cnn2c(NCc3ccccc3-n3cc4cc(C(=O)NC5COC5)ccc4n3)nc(N3CCC(N)CC3)nc12", "6.00 to 7.00"),
    ("CC(C)c1cnn2c(NCc3cccc4cccnc34)nc(N3CCC(N)CC3)nc12", "6.00 to 7.00"),
    ("CC(C)c1cnn2c(NCc3cccc4c3N(C)C(=O)CC4)nc(N3CCC(N)CC3)nc12", "6.00 to 7.00"),
    ("CC(C)c1cnn2c(NCc3ccccc3-n3ccc(C(C)(C)O)n3)nc(NCC3(O)CCNCC3)nc12", "< 6.00"),
    ("CCC(=O)N1CCc2nn(-c3cccc(Cl)c3CNc3cc(O[C@@H]4CCCNC4)nc4c(C(C)C)cnn34)cc2C1", "< 6.00"),
    ("CC(C)c1cnn2c(NCc3c[nH]c4ccccc34)nc(N3CCC(N)CC3)nc12", "< 6.00"),
    ("CC(=O)N(C)c1ccccc1CNc1nc(N2CCC(N)CC2)nc2c(C(C)C)cnn12", "< 6.00"),
    ("CC(C)(C)c1cnn2c(NCc3ccccc3-n3cccn3)nc(N3CCC(N)CC3)nc12", "6.00 to 7.00"),
    ("CC(C)c1cnn2c(NCc3ccccc3OCc3ccccc3)nc(N3CCC(N)CC3)nc12", "< 6.00"),
    ("CC(=O)c1ccc2nn(-c3ccccc3CNc3nc(N4CCC(N)CC4)nc4c(C(C)C)cnn34)cc2c1", "< 6.00"),
    ("CNC(=O)c1cc2cn(-c3ccccc3CNc3nc(N4CCC(N)CC4)nc4c(C(C)C)cnn34)nc2cc1F", "< 6.00"),
    ("CC(C)c1cnn2c(NCc3ccccc3N3CC4CCCCC4C3)nc(N3CCC(N)CC3)nc12 (stereo not drawn)", "< 6.00"),
    ("CC(C)c1cnn2c(NCc3c(Cl)cccc3-c3cc(C(C)(C)O)n(C)n3)nc(N3CCC(N)CC3)nc12", "< 6.00"),
    ("CC(C)c1cnn2c(NCc3c(Cl)cccc3-n3cc4c(n3)CCNC4=O)nc(N3CCC(N)CC3)nc12", "< 6.00"),
    ("CC(C)c1cnn2c(NCc3ccccc3-n3ccc(C(C)(C)O)n3)nc(N3CCC(CN)CC3)nc12", "< 6.00"),
    ("CC(C)c1cnn2c(NCc3c(Cl)cccc3-n3ccc(C(C)(C)O)n3)nc(N3CCC(CN)CC3)nc12", "< 6.00"),
    ("CC(C)c1cnn2c(NCc3ccccc3-c3ccc4cc(C(C)(C)O)ccc4n3)nc(N3CCC(O)(CN)CC3)nc12", "< 6.00"),
    ("CC(C)c1cnn2c(NCc3cccc4ccc(NC(=O)CCCN(C)C)nc34)nc(N3CCC(N)CC3)nc12", "< 6.00"),
    ("CC(C)c1cnn2c(NCc3ccccc3-n3cc(C(=O)NC4CCOCC4)cn3)nc(N3CCC(N)CC3)nc12", "6.00 to 7.00"),
    ("CC(C)c1cnn2c(NCc3ccccc3-c3ccc4ccccc4n3)nc(NCC3CCNCC3)nc12", "< 6.00"),
    ("N#Cc1cnn2c(NCc3ccccc3-n3cccn3)nc(N3CCC(N)CC3)nc12", "< 6.00"),
    ("COc1cccc(-n2cccn2)c1CNc1nc(N2CCC(N)CC2)nc2c(C(C)C)cnn12", "< 6.00"),
    ("CC(C)c1cnn2c(NCc3c(Cl)cccc3-n3cc(N4CCOCC4)cn3)nc(N3CCC(N)CC3)nc12", "< 6.00"),
    ("CC(C)c1cnn2c(N[C@@H](C)c3ccccc3-n3cccn3)nc(N3CCC(N)CC3)nc12", "< 6.00"),
    ("CC(C)c1cnn2c(NCc3ccccc3-c3ccc4c(c3)NC(=O)C(C)(C)O4)nc(N3CCC(N)CC3)nc12", "6.00 to 7.00"),
]

====

biological target: CDK7/Cyclin H/MNAT1 (Homo sapiens, UniProt P50613); construct: purchased Invitrogen PR6749B; experiment: Enzymatic assay for CDK7 (FRET based LANCE Ultra kinase assay); format: biochemical; details: CDK7 over CDK5
measured.metric: CDK5/CDK7: Selectivity of CDK7 inhibition over CDK5 inhibition

# molecule, measurement
data = [
    ("CC(C)c1cnn2c(NCc3ccccc3-n3cccn3)nc([C@H]3CC[C@H](N)CC3)nc12 [Compound 25]", "C (C=less than 20 fold)"),
    ("CC(C)c1cnn2c(NCc3ccccc3-c3ccc4[nH]c(=O)[nH]c4c3)nc(N3CCC(N)CC3)nc12 [Compound 140]", "C (C=less than 20 fold)"),
    ("CC(=O)NC1CCN(c2nc(NCc3ccccc3-c3cc4ccccc4[nH]3)n3ncc(C(C)C)c3n2)CC1 [Compound 111]", "C (C=less than 20 fold)"),
]
